Assay: Apparent volume of distribution in Sprague-Dawley rat at 5.1 mg/kg, iv
Type: ADME, organism-based
Parameters: dose 5.1 mg/kg, route intravenous
Conditions: in vivo, read-out: Vz
REPORTED_ENDPOINT: Vd (L/kg)
Quick note: give the figure in L/kg, leave out the unit.

Form field: reported Vd of O=C(c1ccc(F)nc1)N1CCN2C(=O)c3ccncc3[C@]12c1ccc(Cl)cc1 3.8

###

Tested on: Respiratory syncytial virus
Test: Antiviral activity against respiratory syncytial virus Long infected in human Hep2 cells assessed as reduction in virus-induced cytopathic effect after 5 days by MTT assay
Format: functional, organism-based
Settings: HEp-2, 120 h
REPORTED_ENDPOINT: EC50
A complete answer gives the number and then names the unit.

compound="O=C(c1ccco1)N1CCN2C(=O)c3ccncc3C12c1ccc(Cl)cc1 (racemic)" reported_endpoint=EC50 result="370 nM"
compound=O=C(c1ccc(F)nc1)N1CCN2C(=O)c3ccncc3[C@]12c1ccc(Cl)cc1 reported_endpoint=EC50 result="130 nM"
compound=Cn1cc(C(=O)N2CCN3C(=O)c4ccncc4[C@@]32c2ccc(Cl)cc2)c(C(F)(F)F)n1 reported_endpoint=EC50 result="6.4 nM"
compound=O=C(c1ccoc1)N1CCN2C(=O)c3ccncc3[C@]12c1ccc(Cl)cc1 reported_endpoint=EC50 result="32 nM"

Kindly consider the entry below.
Endpoint output: EC50 of O=C(c1cccnc1)N1CCN2C(=O)c3ccncc3[C@]12c1ccc(Cl)cc1 [BTA-9881] . Value? 59 nM

###

Experiment: Kinetic solubility in 0.01M HCl buffer at pH 2.0 by nephelometry
Format: physicochemical
Conditions: read-out: Kinetic_solubility
Parameter: solubility kinetic. Scope: all listed entries.

Could you share which solubility kinetic value was measured for O=C(c1cccnc1)N1CCN2C(=O)c3ccncc3[C@]12c1ccc(Cl)cc1 ? > 100 µg/mL

Query (molecule): O=C(c1ccc(F)nc1)N1CCN2C(=O)c3ccncc3[C@]12c1ccc(Cl)cc1 ; field requested: solubility kinetic > 100 µg/mL

Requested field: solubility kinetic. Item: Cn1cc(C(=O)N2CCN3C(=O)c4ccncc4[C@@]32c2ccc(Cl)cc2)c(C(F)(F)F)n1 > 100 µg/mL

###

Test: Cytotoxicity against human Hep2 cells assessed as reduction in cell viability after 5 days by MTT assay
Assay type: cell-based, HEp-2
REPORTED_ENDPOINT: CC50 at 120 h

molecule="Cn1cc(C(=O)N2CCN3C(=O)c4ccncc4C32c2ccc(Cl)cc2)c(C(F)(F)F)n1 (racemic)" result="> 16 µM"
molecule="O=C(c1ccc(F)nc1)N1CCN2C(=O)c3ccncc3C12c1ccc(Cl)cc1 (racemic)" result="> 48 µM"
molecule="O=C(NCc1ccc(F)cc1)N1CCN2C(=O)c3ccncc3C12c1ccc(Cl)cc1 (racemic)" result="> 20 µM"
molecule="O=C(c1cc2ccccc2o1)N1CCN2C(=O)c3ccncc3C12c1ccc(Cl)cc1 (racemic)" result="> 17 µM"
molecule="Cc1cc(C(=O)N2CCN3C(=O)c4ccncc4C32c2ccc(Cl)cc2)c(C)o1 (racemic)" result="> 18 µM"
molecule="O=C(Nc1ccc(F)cc1)N1CCN2C(=O)c3ccncc3C12c1ccc(Cl)cc1 (racemic)" result="> 20 µM"
molecule="O=C(c1ccc(F)nc1)N1CCN2C(=O)c3cc[n+]([O-])cc3C12c1ccc(Cl)cc1 (racemic)" result="> 17 µM"
molecule="O=C(c1ccc2ccccc2n1)N1CCN2C(=O)c3ccncc3C12c1ccc(Cl)cc1 (racemic)" result="> 17 µM"

Which measured CC50 at 120 h value corresponds to Cc1nc(C(=O)N2CCN3C(=O)c4ccncc4C23c2ccc(Cl)cc2)cs1 (racemic) ? > 18 µM

Given O=C(NCCc1ccc(F)cc1)N1CCN2C(=O)c3ccncc3C12c1ccc(Cl)cc1 (racemic) , state its recorded CC50 at 120 h. > 20 µM

###

Assay: Cytotoxicity against human Hep2 cells assessed as reduction in cell viability after 5 days by MTT assay
Type: cell-based, HEp-2
REPORTED_ENDPOINT: CC50 at 120 h

compound="O=C(c1csc(-c2cccs2)n1)N1CCN2C(=O)c3ccncc3C12c1ccc(Cl)cc1 (racemic)" result="> 15 µM"
compound="O=C(c1csc(-c2cccnc2)n1)N1CCN2C(=O)c3ccncc3C12c1ccc(Cl)cc1 (racemic)" result="> 15 µM"

Here is the next item to consider.
CC50 at 120 h lookup needed for Cc1oc(-c2ccccc2)cc1C(=O)N1CCN2C(=O)c3ccncc3C21c1ccc(Cl)cc1 (racemic) , thanks. > 15 µM
